Data provenance is PubChem BioAssay AID1508604.

Test system: CD-1 mouse liver cytosol, LC/MS substrate depletion half-life
test_protocol: NCATS Mouse Liver Cytosol Stability Profiling
test_conditions: at 1 µM; higher = more stable
Give measured half-life for each item. Keep answers brief.

Inquiry: Name the recorded half-life of the item COc1cccc(C(=O)NCC2CCCN(Cc3ccn[nH]3)C2)c1OC (stereo unspecified) in your answer.
Reply text: > 2 h

Inquiry: Provide measured half-life value, entry: O=C1OCC2(CCN(Cc3ccc(Cl)cc3)C2)N1CCN1CCOCC1 (stereo unspecified)
Reply text: > 2 h

Inquiry: Determine its reported half-life: "Cc1ccc(-c2ccc3nnc(CNC(=O)c4ccc(Cl)cc4)n3n2)cc1"
Reply text: > 2 h

Inquiry: # return recorded half-life for entry "O=C(Nc1cccc(-c2nnc3n2CCCC3)c1)c1ccn[nH]1"
Reply text: > 2 h

Inquiry: Return half-life for the following compound: COCC1CN(Cc2ccc(Cl)cc2)CC12CCNCC2 (stereo unspecified)
Reply text: > 2 h

Inquiry: Give recorded half-life. CN1c2cc(C(=O)Nc3ccc(Cl)cc3)ccc2C(=O)N2CCCCC21 (stereo unspecified)
Reply text: 1.39 h

Inquiry: Hello, please tell me recorded half-life for this one: COc1cccc(C(=O)NCC2CCCN(Cc3ccc(Cl)cc3)C2)c1OC (stereo unspecified)
Reply text: > 2 h

Inquiry: Let me know recorded half-life for "CN1CCN(c2nc3c(c(=O)[nH]2)CCN(Cc2ccc(Cl)cc2)CC3)CC1" , thanks.
Reply text: > 2 h

Inquiry: Name the recorded half-life of the compound listed here: "Cc1cccc(-c2noc([C@@H]3C[C@@H](O)CN3Cc3ccc(Cl)cc3)n2)c1"
Reply text: 0.394 h

Inquiry: Given O=C1OCC2(CCN(Cc3ccn[nH]3)C2)N1CCN1CCOCC1 (stereo unspecified) , respond with its half-life.
Reply text: > 2 h

Inquiry: Hello, please tell me recorded half-life for this one: "CCOc1cc(=O)n2c(c1C(=O)Nc1ccc(Cl)c(F)c1)CCCC2"
Reply text: 1.34 h

----------
System: CD-1 mouse liver cytosol, LC/MS substrate depletion half-life
test_protocol: NCATS Mouse Liver Cytosol Stability Profiling
test_conditions: at 1 µM; higher = more stable
Protocol: Assay submitter (PI): Pranav Shah Ph.D. NIH Center for Advancing Translational Sciences 9800 Medical Center Dr, Rockville MD, 20850 Over the last few decades, chemists have become skilled at designing compounds that avoid cytochrome P (CYP) 450 mediated metabolism. Typical screening assays are performed in liver microsomal fractions and it is possible to overlook the contribution of cytosolic enzymes until much later in the drug discovery process. […]
So basically: half-life at 0.8 h or higher? That is Satisfied. Lower than 0.8 h? That is Not satisfied.

Inquiry: API: above_or_equal(metric=half-life, cutoff=0.8 h) for item "OCC1(CN2CCCC2)CCN(Cc2ccc(Cl)c(F)c2)CC1"
Reply text: Satisfied

Inquiry: # check: half-life of "CN(Cc1cccnc1)c1nc2c(c(=O)[nH]1)CCN(Cc1ccc(Cl)cc1)CC2" is greater than or equal to 0.8 h
Reply text: Satisfied

Inquiry: # bool: half-life of "FC(F)(F)c1ccc2nc([C@H]3CCN(Cc4ccc(Cl)cc4)C3)[nH]c2c1" >= 0.8 h
Reply text: Satisfied

Inquiry: Given the entry CN1c2cc(C(=O)Nc3ccc(Cl)c(F)c3)ccc2C(=O)N2CCCCCC21 (configuration not stated) , answer whether its half-life meets or surpasses 0.8 h.
Reply text: Not satisfied

Inquiry: Has "Cc1noc(-c2nc(-c3ccc(Cl)cc3)no2)n1" a recorded half-life greater than or equal to 0.8 h?
Reply text: Not satisfied

Inquiry: Does CCN1c2cc(C(=O)Nc3ccc(Cl)c(F)c3)ccc2C(=O)N2CCCCC21 (configuration not stated) have a reported half-life of at least 0.8 h?
Reply text: Not satisfied

Inquiry: Hi team, for CCN1c2cc(C(=O)Nc3ccc(Cl)cc3)ccc2C(=O)N2CCCCC21 (configuration not stated) , is the recorded half-life at or above 0.8 h?
Reply text: Not satisfied

Inquiry: Has "O=C(Nc1ccc(-c2nnc3n2CCCC3)cc1)c1ccn[nH]1" a recorded half-life greater than or equal to 0.8 h?
Reply text: Satisfied

Inquiry: Check this molecule for half-life at or above 0.8 h: "Cn1c([C@H]2CCN(Cc3ccc(Cl)cc3)C2)nc2ccccc21"
Reply text: Satisfied

Inquiry: Say whether COCC1CN(C(C)=O)CC12CCN(Cc1ccc(Cl)c(F)c1)CC2 (configuration not stated) shows half-life of 0.8 h or more.
Reply text: Satisfied

Inquiry: Could you verify whether the entry O=C1NC2(CCN(C(=O)c3ccc(Cl)cc3)CC2)CC1c1ccccc1 (configuration not stated) shows half-life of no less than 0.8 h?
Reply text: Satisfied

Inquiry: Quick check: does COCC1CN(Cc2ccc(Cl)c(F)c2)CC12CCNCC2 (configuration not stated) have half-life greater than or equal to 0.8 h?
Reply text: Satisfied

Inquiry: Evaluate "O=c1[nH]c(N2CCOCC2)nc2c1CCN(Cc1ccc(Cl)cc1)CC2" : half-life at minimum 0.8 h?
Reply text: Satisfied

Inquiry: hey, is half-life for this one >= 0.8 h? "CN(C1CCOCC1)C1CCN(C(=O)c2ccn[nH]2)CC1"
Reply text: Satisfied

Inquiry: Has O=C1NC2(CCN(C(=O)c3ccc(Cl)c(F)c3)CC2)CC1c1ccccc1 (configuration not stated) a recorded half-life greater than or equal to 0.8 h?
Reply text: Satisfied

Inquiry: Tell me whether half-life is at least 0.8 h here: CN1c2cc(C(=O)Nc3ccc(Cl)c(F)c3)ccc2C(=O)N2CCCCC21 (configuration not stated)
Reply text: Not satisfied

Inquiry: Does the molecule "O=c1[nH]c(N2CCOCC2)nc2c1CCN(Cc1ccc(Cl)c(F)c1)CC2" have recorded half-life that is 0.8 h or more?
Reply text: Satisfied

Inquiry: Can "CN(C1CCOCC1)C1CCN(C(=O)c2ccc(Cl)cc2)CC1" be said to have half-life at or above 0.8 h?
Reply text: Satisfied

Inquiry: # check: half-life of "CN1CCN(c2nc3c(c(=O)[nH]2)CCN(Cc2ccc(Cl)c(F)c2)CC3)CC1" is greater than or equal to 0.8 h
Reply text: Satisfied

Inquiry: Is half-life for "O=C1[C@H]2CN(Cc3ccc(Cl)c(F)c3)C[C@H]2C(=O)N1CCc1ccccc1" at or above 0.8 h?
Reply text: Not satisfied

Inquiry: API: above_or_equal(metric=half-life, cutoff=0.8 h) for item "Cc1ccc2nc(CO[C@H]3CN(Cc4ccc(Cl)cc4)C[C@H]3F)[nH]c2c1"
Reply text: Satisfied
